B1: glmS ribozyme (parent)
chain: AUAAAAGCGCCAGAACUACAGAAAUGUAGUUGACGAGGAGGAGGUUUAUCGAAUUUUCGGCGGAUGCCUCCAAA

- Variants of: B1
- TEST_SUMMARY: KM; higher = weaker cofactor use; RNA array
- MEASUREMENT_SETUP: with glucosamine-6-phosphate
// reported KM for each item listed
Your answer should be a plain number; it is taken to be in µM.

SEQ_STRING: AUAAAAGCGCCAGAACUACAGAAAUGUAGUUGACGAGGAGGAGUUUUAUCGAAUUGUCGGCGGAUGCCUCCAAA [G44U U56G]
KM (µM): 3010

Input line: Return reported KM. Input variant: AUAAAAGCGCAAGAACUACAGAAAUGUAGUUGACGAGGAGGAGGUUUAUCGAAUUUUCGGCGGGUGCCUCCAAA [C11A A64G]
Output line: 1190

Input line: Return reported KM. Input variant: AUAAAAGCGCCAGAACUACAGAAAUGUAGUUGACGAGGAGGAGUUUUAUCGAAUUUUCGGCGGAUGUCUCCAAA [G44U C67U]
Output line: 727

Input line: Return reported KM. Input variant: AUAAAAGCGCCAGAACUACAGAAAUGUAGUUGACGAGGAGGAGGUUUGUCGAAUGUUCGGCGGAUGCCUCCAAA [A48G U55G]
Output line: 759

Input line: Return reported KM. Input variant: AUAAAAGCGCCAGAACUACAGAAAUGUAGUUGACGAGGAGGAGGUAUAUCGAAGUUUCGGCGGAUGCCUCCAAA [U46A U54G]
Output line: 1180

Input line: Return reported KM. Input variant: AUAAAAGCGCCAGAACUACAGAAAUGUAUUUUACGAGGAGGAGGUUUAUCGAAUUUUCGGCGGAUGCCUCCAAA [G29U G32U]
Output line: 8560

Input line: Return reported KM. Input variant: AUAAAAGCGCCAGAACUACAGAAAUGUAGUUGACGAGGAGGAGGUUUAUCGACCUUUCGGCGGAUGCCUCCAAA [A53C U54C]
Output line: 1870

Input line: Return reported KM. Input variant: AUAAAAGCGCCAGAACUACAGAAAUGUAGUUGACGAGGAGGAGGUUUAUCGACUUUUCGGCGGAUACCUCCAAA [A53C G66A]
Output line: 1670
